Provide the reported SPOT peptide array binding signal intensity of each item.
experimental_target: SpPex13
assay_notes: SPOT peptide array binding signal intensity (averaged, normalized) (arbitrary units (background-subtracted, floor 0; scale differs between SH3 domains)); higher = stronger binding of the SH3 domain to the peptide
Give bare numbers.

>>> df
            binder  result
0  PLRRTVMSLPGNHDI      40

Batch of 8 binders: report SPOT peptide array binding signal intensity for each.
1. SRYRRPLTLLLLKPF
2. QRIRKIPGIPLMSVG
3. NHSRSLFSLPGNQQS
4. ISNFVPPNLPMRRFK
5. RRARRQMGIPTISQV
6. TKPTPPPKPSHLKPK
7. KFIPSRPAPKPPSSA
8. GKFIPSRPAPKPPSS

Response:
[11.5, 22, 7, 57.5, 86, 7, 90, 22]
